Ref: patent US20050137135A1

# cAMP Production Max. cAMP (Fold Basal) values compiled below
Target: rat pancreatic islet (wild type) GIP-receptor (Rattus norvegicus, UniProt P43219)
Construct: expressed in transfected cells; host or cells: CHO-K1 (Chinese hamster ovary)
Sequence (P43219 19-455): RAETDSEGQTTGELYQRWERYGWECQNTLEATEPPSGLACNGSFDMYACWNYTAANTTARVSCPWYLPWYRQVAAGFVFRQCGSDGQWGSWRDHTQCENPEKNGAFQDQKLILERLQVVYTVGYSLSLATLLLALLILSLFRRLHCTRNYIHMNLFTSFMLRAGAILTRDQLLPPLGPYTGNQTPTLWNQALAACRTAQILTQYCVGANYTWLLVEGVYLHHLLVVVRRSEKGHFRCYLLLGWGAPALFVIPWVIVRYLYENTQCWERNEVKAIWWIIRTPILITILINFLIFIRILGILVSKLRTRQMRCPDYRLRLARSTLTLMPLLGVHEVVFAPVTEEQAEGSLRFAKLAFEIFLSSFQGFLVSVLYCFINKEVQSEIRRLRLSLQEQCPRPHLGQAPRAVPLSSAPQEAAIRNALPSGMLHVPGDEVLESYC
Experiment: cAMP production in CHO-K1 cells expressing the GIP-receptor (wtGIP-R1 cells)
Assay type: cell-based
Details: Table 3; cyclic AMP stimulated by 20 μM peptide if plateau levels were not achieved
Ends that are not written are not given here.
endpoint.label: cAMP Production Max. cAMP (Fold Basal)

YAEGTFAAAAQQDFVNWLLAQK-NH2 [GIP(l-6)(AAAA)(19-30)NH2] ... 7.21
YAEGTFQQDFVNWLLAQK-NH2 [GIP(1-6)(19-30)NH2] ... 1.81
YAEGTFISDYSIAMQQDFVNWLLAQK-NH2 [GIP(1-14)(19-30)NH2] ... 127
YAEGTFEKEKQQDFVNWLLAQK-NH2 [GIP(1-6)(EKEK)(19-30)NH2] ... 8.17
YAEGTFISDYSIAMAAAAQQDFVNWLLAQK-NH2 [GIP(1-14)(AAAA)(19-30)NH2] ... 82.1
YAEGTFEKEEKEKEEKEQQDFVNWLLAQK-NH2 ... 84.9
YAEGTFISDYSIAMEKEKQQDFVNWLLAQK-NH2 [GIP(1-14)(EKEK)(19-30)NH2] ... 80.6
